System: Ipomoea hederacea (IPOHE)
Assay: Glasshouse herbicidal test, pre- and post-emergence (Table B1)
Assay type: in vivo
Settings: post-emergence, 130 g/h, evaluated after 13 days
Below is a list of entries, each paired with its recorded percentage damage caused to the plant, POST Application IPOHE value.

Answered examples (6):
Lab request: please report percentage damage caused to the plant, POST Application IPOHE under test system Ipomoea hederacea (IPOHE) for Cn1nnnc1NC(=O)c1ccc(OC(F)F)c(NS(=O)(=O)C2CC2)c1Cl 5 (5=80-100%)

Request body: readout percentage damage caused to the plant, POST Application IPOHE, system Ipomoea hederacea (IPOHE), query CC(C)CS(=O)(=O)Nc1c(OC(F)(F)F)ccc(C(=O)Nc2nnnn2C)c1Cl . Return the value. 5 (5=80-100%)

Fill in the recorded percentage damage caused to the plant, POST Application IPOHE for this compound, with Ipomoea hederacea (IPOHE) as test system: CN(c1c(OC(F)F)ccc(C(=O)Nc2nnnn2C)c1Cl)S(C)(=O)=O 4 (4=60-79%)

Give Ipomoea hederacea (IPOHE) percentage damage caused to the plant, POST Application IPOHE for Cn1nnnc1NC(=O)c1ccc(OC(F)(F)F)c(NS(=O)(=O)CC2CC2)c1Cl 5 (5=80-100%)

Quick check: percentage damage caused to the plant, POST Application IPOHE on Ipomoea hederacea (IPOHE), item CCS(=O)(=O)Nc1c(OC(F)(F)F)ccc(C(=O)Nc2nnnn2C)c1C ? 5 (5=80-100%)

Lab request: please report percentage damage caused to the plant, POST Application IPOHE under test system Ipomoea hederacea (IPOHE) for CCS(=O)(=O)N(C)c1c(OC(F)F)ccc(C(=O)Nc2nnnn2C)c1Cl 4 (4=60-79%)

Next:
Lookup: percentage damage caused to the plant, POST Application IPOHE / Ipomoea hederacea (IPOHE) / CC(C)S(=O)(=O)Nc1c(OC(F)(F)F)ccc(C(=O)Nc2nnnn2C)c1Cl 4 (4=60-79%)

Request - read-out percentage damage caused to the plant, POST Application IPOHE | tested on Ipomoea hederacea (IPOHE) | compound CCn1nnnc1NC(=O)c1ccc(OC(F)F)c(NS(C)(=O)=O)c1Cl 5 (5=80-100%)

Please provide the recorded percentage damage caused to the plant, POST Application IPOHE for CCn1nnnc1NC(=O)c1ccc(OC(F)(F)F)c(NS(C)(=O)=O)c1Cl , tested on Ipomoea hederacea (IPOHE). 5 (5=80-100%)

Notebook: pull reported percentage damage caused to the plant, POST Application IPOHE for Ipomoea hederacea (IPOHE), entry CN(c1c(OC(F)(F)F)ccc(C(=O)Nc2nnnn2C)c1Cl)S(C)(=O)=O 4 (4=60-79%)

percentage damage caused to the plant, POST Application IPOHE of CC(C)S(=O)(=O)Nc1c(OC(F)F)ccc(C(=O)Nc2nnnn2C)c1Cl on Ipomoea hederacea (IPOHE)? 5 (5=80-100%)

----------
A collection of molecules and their measured percentage damage caused to the plant, POST Application IPOHE
Test system: Ipomoea hederacea (IPOHE)
Assay: Glasshouse herbicidal test, pre- and post-emergence (Table B1)
Type: in vivo
Conditions: post-emergence, 130 g/h, evaluated after 13 days

# annotated cases, reported percentage damage caused to the plant, POST Application IPOHE shown
Would you kindly share the measured percentage damage caused to the plant, POST Application IPOHE for COCCS(=O)(=O)Nc1c(OC(F)(F)F)ccc(C(=O)Nc2nnnn2C)c1Cl [Compound 1.054] ? 4 (4=60-79%)

Can you look up the measured percentage damage caused to the plant, POST Application IPOHE of CC(C)CS(=O)(=O)Nc1c(OC(F)F)ccc(C(=O)Nc2nnnn2C)c1Cl [Compound 1.070] for me? 4 (4=60-79%)

I am curious: what percentage damage caused to the plant, POST Application IPOHE value has been reported for COCCS(=O)(=O)Nc1c(OC(F)F)ccc(C(=O)Nc2nnnn2C)c1Cl [Compound 1.014] ? 3 (3=40-59%)

Name the reported percentage damage caused to the plant, POST Application IPOHE value associated with the molecule CCS(=O)(=O)Nc1c(OC(F)F)ccc(C(=O)Nc2nnnn2C)c1Cl [Compound 1.064] 4 (4=60-79%)

Reported percentage damage caused to the plant, POST Application IPOHE for CCN(c1c(OC(F)(F)F)ccc(C(=O)Nc2nnnn2C)c1Cl)S(C)(=O)=O [Compound 1.079] : what is it? 4 (4=60-79%)

Next:
Find the recorded percentage damage caused to the plant, POST Application IPOHE belonging to Cn1nnnc1NC(=O)c1ccc(OC(F)(F)F)c(NS(=O)(=O)C2CC2)c1Cl [Compound 1.073] and report it. 5 (5=80-100%)

Given CCS(=O)(=O)Nc1c(OC(F)(F)F)ccc(C(=O)Nc2nnnn2C)c1Cl [Compound 1.003] , state its recorded percentage damage caused to the plant, POST Application IPOHE. 5 (5=80-100%)

Data request, read-out percentage damage caused to the plant, POST Application IPOHE, for CCCS(=O)(=O)Nc1c(OC(F)(F)F)ccc(C(=O)Nc2nnnn2C)c1Cl [Compound 1.072] 5 (5=80-100%)

Please report the recorded percentage damage caused to the plant, POST Application IPOHE for CCn1nnnc1NC(=O)c1ccc(OC(F)(F)F)c(NS(=O)(=O)CC)c1Cl [Compound 1.002] . 4 (4=60-79%)

For the molecule CCCS(=O)(=O)Nc1c(OC(F)F)ccc(C(=O)Nc2nnnn2C)c1Cl [Compound 1.069] , what percentage damage caused to the plant, POST Application IPOHE is on record? 5 (5=80-100%)

----------
System: Setaria faberi (SETFA)
Assay: Glasshouse herbicidal test, pre- and post-emergence (Table B1)
Format: in vivo
Settings: post-emergence, 130 g/h, evaluated after 13 days
value kind: percentage damage caused to the plant, POST Application SETFA

// solved cases for percentage damage caused to the plant, POST Application SETFA follow
Please give the measured percentage damage caused to the plant, POST Application SETFA for this compound: CCS(=O)(=O)Nc1c(OC(F)(F)F)ccc(C(=O)Nc2nnnn2C)c1Cl 5 (5=80-100%)

For the compound CCS(=O)(=O)N(C)c1c(OC(F)F)ccc(C(=O)Nc2nnnn2C)c1Cl , what percentage damage caused to the plant, POST Application SETFA is on record? 5 (5=80-100%)

Below: the item to evaluate.
Sample Cn1nnnc1NC(=O)c1ccc(OC(F)(F)F)c(NS(=O)(=O)CC2CC2)c1Cl — what was its percentage damage caused to the plant, POST Application SETFA? 5 (5=80-100%)

----------
Tested on: Setaria faberi (SETFA)
Assay: Glasshouse herbicidal test, pre- and post-emergence (Table B1)
Type: in vivo
Conditions: post-emergence, 130 g/h, evaluated after 13 days
Protocol: Seeds of a variety of test species are sown in standard soil in pots (Lolium perenne (LOLPE), Amaranthus retoflexus (AMARE), Amaranthus palmeri (AMAPA), Ablution theophrasti (ABUTH), Setaria faberi (SETFA), Echinochloa crus-galli (ECHCG), Ipomoea hederacea (IPOHE)). […] After 13 days for pre and post-emergence, the test is evaluated for the percentage damage caused to the plant. […]
value kind: percentage damage caused to the plant, POST Application SETFA

// returns reported percentage damage caused to the plant, POST Application SETFA for input CCS(=O)(=O)Nc1c(OC(F)(F)C(F)F)ccc(C(=O)Nc2nnnn2C)c1Cl 5 (5=80-100%)

If you can, please state the reported percentage damage caused to the plant, POST Application SETFA value of CCn1nnnc1NC(=O)c1ccc(OC(F)(F)F)c(NS(C)(=O)=O)c1Cl . 5 (5=80-100%)

State the recorded percentage damage caused to the plant, POST Application SETFA for this entry: CCn1nnnc1NC(=O)c1ccc(OC(F)(F)F)c(NS(=O)(=O)CC)c1Cl 5 (5=80-100%)

Dear colleague, I am looking for the recorded percentage damage caused to the plant, POST Application SETFA of the following molecule: COCCS(=O)(=O)Nc1c(OC(F)(F)F)ccc(C(=O)Nc2nnnn2C)c1Cl 4 (4=60-79%)

Give the measured percentage damage caused to the plant, POST Application SETFA of Cc1c(C(=O)Nc2nnnn2C)ccc(OC(F)(F)F)c1NS(C)(=O)=O . 5 (5=80-100%)

---
// query percentage damage caused to the plant, POST Application SETFA value for entry CCS(=O)(=O)N(C)c1c(OC(F)(F)F)ccc(C(=O)Nc2nnnn2C)c1Cl 5 (5=80-100%)

Which percentage damage caused to the plant, POST Application SETFA is listed for COCCS(=O)(=O)Nc1c(OC(F)F)ccc(C(=O)Nc2nnnn2C)c1Cl ? 4 (4=60-79%)

Give its percentage damage caused to the plant, POST Application SETFA value. Item: CN(c1c(OC(F)(F)F)ccc(C(=O)Nc2nnnn2C)c1Cl)S(C)(=O)=O 5 (5=80-100%)

----------
System: Ipomoea hederacea (IPOHE)
Assay: Glasshouse herbicidal test, pre- and post-emergence (Table B1)
Type: in vivo
Conditions: pre-emergence, 130 g/h, evaluated after 13 days
Experimental: Seeds of a variety of test species are sown in standard soil in pots (Lolium perenne (LOLPE), Amaranthus retoflexus (AMARE), Amaranthus palmeri (AMAPA), Ablution theophrasti (ABUTH), Setaria faberi (SETFA), Echinochloa crus-galli (ECHCG), Ipomoea hederacea (IPOHE)). […] After 13 days for pre and post-emergence, the test is evaluated for the percentage damage caused to the plant. […]
Collected percentage damage caused to the plant, PRE Application IPOHE values appear next to each entry.

Solved cases (5 shown):
I have this compound here, CCS(=O)(=O)Nc1c(OC(F)F)ccc(C(=O)Nc2nnnn2C)c1Cl [Compound 1.064] , and I need its recorded percentage damage caused to the plant, PRE Application IPOHE. 2 (2=20-39%)

percentage damage caused to the plant, PRE Application IPOHE for Cn1nnnc1NC(=O)c1ccc(OC(F)F)c(NS(=O)(=O)C2CC2)c1Cl [Compound 1.067] ? 4 (4=60-79%)

Recorded percentage damage caused to the plant, PRE Application IPOHE for CCCS(=O)(=O)Nc1c(OC(F)(F)F)ccc(C(=O)Nc2nnnn2C)c1Cl [Compound 1.072] , please? 5 (5=80-100%)

Param item = COCCS(=O)(=O)Nc1c(OC(F)(F)F)ccc(C(=O)Nc2nnnn2C)c1Cl [Compound 1.054] ; retrieve measured percentage damage caused to the plant, PRE Application IPOHE. 3 (3=40-59%)

Looking for the measured percentage damage caused to the plant, PRE Application IPOHE of CCS(=O)(=O)N(C)c1c(OC(F)F)ccc(C(=O)Nc2nnnn2C)c1Cl [Compound 1.087] , can you help? 5 (5=80-100%)

New cases:
So what's the measured percentage damage caused to the plant, PRE Application IPOHE for this one? CC(C)S(=O)(=O)Nc1c(OC(F)F)ccc(C(=O)Nc2nnnn2C)c1Cl [Compound 1.013] 5 (5=80-100%)

Entry Cc1c(C(=O)Nc2nnnn2C)ccc(OC(F)(F)F)c1NS(C)(=O)=O [Compound 1.075] : reported percentage damage caused to the plant, PRE Application IPOHE = ? 3 (3=40-59%)

What does the data say about its percentage damage caused to the plant, PRE Application IPOHE? Entry: CCS(=O)(=O)N(C)c1c(OC(F)(F)F)ccc(C(=O)Nc2nnnn2C)c1Cl [Compound 1.080] 5 (5=80-100%)

Name the reported percentage damage caused to the plant, PRE Application IPOHE value associated with the compound CCn1nnnc1NC(=O)c1ccc(OC(F)(F)F)c(NS(=O)(=O)CC)c1Cl [Compound 1.002] 5 (5=80-100%)

Fill blank: measured percentage damage caused to the plant, PRE Application IPOHE of the compound CCS(=O)(=O)Nc1c(OC(F)(F)F)ccc(C(=O)Nc2nnnn2C)c1Cl [Compound 1.003] is ____. 4 (4=60-79%)

Which percentage damage caused to the plant, PRE Application IPOHE is listed for COCCS(=O)(=O)Nc1c(OC(F)F)ccc(C(=O)Nc2nnnn2C)c1Cl [Compound 1.014] ? 1 (1=0-19%)

May I ask what percentage damage caused to the plant, PRE Application IPOHE has been recorded for CC(C)CS(=O)(=O)Nc1c(OC(F)(F)F)ccc(C(=O)Nc2nnnn2C)c1Cl [Compound 1.074] ? 3 (3=40-59%)

If you can, please state the reported percentage damage caused to the plant, PRE Application IPOHE value of CN(c1c(OC(F)F)ccc(C(=O)Nc2nnnn2C)c1Cl)S(C)(=O)=O [Compound 1.071] . 3 (3=40-59%)

I would be grateful if you could share the reported percentage damage caused to the plant, PRE Application IPOHE for Cn1nnnc1NC(=O)c1ccc(OC(F)(F)F)c(NS(=O)(=O)C2CC2)c1Cl [Compound 1.073] . 5 (5=80-100%)

Entry CCS(=O)(=O)Nc1c(OC(F)(F)F)ccc(C(=O)Nc2nnnn2C)c1C [Compound 1.081] has what percentage damage caused to the plant, PRE Application IPOHE? 3 (3=40-59%)

What measured percentage damage caused to the plant, PRE Application IPOHE goes with CN(c1c(OC(F)(F)F)ccc(C(=O)Nc2nnnn2C)c1Cl)S(C)(=O)=O [Compound 1.077] ? 4 (4=60-79%)

Looking for the measured percentage damage caused to the plant, PRE Application IPOHE of CCCS(=O)(=O)Nc1c(OC(F)F)ccc(C(=O)Nc2nnnn2C)c1Cl [Compound 1.069] , can you help? 4 (4=60-79%)

Would you kindly share the measured percentage damage caused to the plant, PRE Application IPOHE for Cn1nnnc1NC(=O)c1ccc(OC(F)(F)F)c(NS(C)(=O)=O)c1Cl [Compound 1.004] ? 3 (3=40-59%)

Reported percentage damage caused to the plant, PRE Application IPOHE for CCS(=O)(=O)Nc1c(OC(F)(F)C(F)F)ccc(C(=O)Nc2nnnn2C)c1Cl [Compound 1.086] : what is it? 2 (2=20-39%)

Requested read-out: percentage damage caused to the plant, PRE Application IPOHE. Entry: CC(C)S(=O)(=O)Nc1c(OC(F)(F)F)ccc(C(=O)Nc2nnnn2C)c1Cl [Compound 1.076] 3 (3=40-59%)

For the compound CC(C)CS(=O)(=O)Nc1c(OC(F)F)ccc(C(=O)Nc2nnnn2C)c1Cl [Compound 1.070] , what percentage damage caused to the plant, PRE Application IPOHE is on record? 2 (2=20-39%)

Name the recorded percentage damage caused to the plant, PRE Application IPOHE for CCn1nnnc1NC(=O)c1ccc(OC(F)F)c(NS(C)(=O)=O)c1Cl [Compound 1.059] . 2 (2=20-39%)

Requested field: percentage damage caused to the plant, PRE Application IPOHE. Item: CCN(c1c(OC(F)(F)F)ccc(C(=O)Nc2nnnn2C)c1Cl)S(=O)(=O)CC [Compound 1.078] 4 (4=60-79%)

Look up percentage damage caused to the plant, PRE Application IPOHE for this compound: CCN(c1c(OC(F)(F)F)ccc(C(=O)Nc2nnnn2C)c1Cl)S(C)(=O)=O [Compound 1.079] 4 (4=60-79%)
